Measured T cell proliferative response (HT-2 [3H]TdR uptake) at 3000 nM, listed per entry.
Target: murine class II MHC allele E^k on CH27 B cell lymphoma antigen presenting cells (murine)
Experiment: cell-based or functional assay
Non-standard residues stand in square brackets, D forms with d. Ava = NCCCCC(=O)O

Consider the reported T cell proliferative response (HT-2 [3H]TdR uptake) at 3000 nM for these binders:
input: What value of T cell proliferative response (HT-2 [3H]TdR uptake) at 3000 nM has been recorded for this entry: Ac-LRMKLPKSIAYLKQATAK-NH2 [Hybrid 4, Ac-LRMKLPKSIAYLKQATAK-NH2]
output: 25.2 thousands of cpm

input: What value of T cell proliferative response (HT-2 [3H]TdR uptake) at 3000 nM has been recorded for this entry: Ac-LRMKLPKSAKPVSKIAYLKQATAK-NH2 [Hybrid 6, Ac-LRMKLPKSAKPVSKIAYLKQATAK-NH2]
output: 21.5 thousands of cpm

input: What value of T cell proliferative response (HT-2 [3H]TdR uptake) at 3000 nM has been recorded for this entry: Ac-IAYLKQATAK-NH2 [Hybrid 1, Ac-IAYLKQATAK-NH2 (antigenic epitope PGCC 95-104 without Ii-Key)]
output: 25.2 thousands of cpm

Continuing:
input: What value of T cell proliferative response (HT-2 [3H]TdR uptake) at 3000 nM has been recorded for this entry: Ac-LRMK[Ava][Ava]IAYLKQATAK-NH2 (SMILES CC[C@H](C)[C@H](NC(=O)CCCCNC(=O)CCCCNC(=O)[C@H](CCCCN)NC(=O)[C@H](CCSC)NC(=O)[C@H](CCCNC(=N)N)NC(=O)[C@H](CC(C)C)NC(C)=O)C(=O)N[C@@H](C)C(=O)N[C@@H](Cc1ccc(O)cc1)C(=O)N[C@@H](CC(C)C)C(=O)N[C@@H](CCCCN)C(=O)N[C@@H](CCC(N)=O)C(=O)N[C@@H](C)C(=O)N[C@H](C(=O)N[C@@H](C)C(=O)N[C@@H](CCCCN)C(N)=O)[C@@H](C)O) [Hybrid 3, Ac-LRMK-ava-ava-IAYLKQATAK-NH2]
output: 31.9 thousands of cpm

input: What value of T cell proliferative response (HT-2 [3H]TdR uptake) at 3000 nM has been recorded for this entry: Ac-LRMKLPKSAKPIAYLKQATAK-NH2 [Hybrid 5, Ac-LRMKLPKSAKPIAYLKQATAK-NH2]
output: 27.3 thousands of cpm

The values you see were collected from patent US20100310591A1.
